# procedure text: A qHTS for Small Molecule Inhibitors of Shiga Toxin; also: 0% is about no effect
# condition description: Vero cells, Shiga toxin protein synthesis inhibition reporter; at 38.7 µM, stronger effect = higher value
Hit rate of the full screen: of about 290,000 compounds, about 27,000 (9.3%) were called active. What follows is part of a selection rich in actives, with near analogues and random picks from the rest.
attribute measured: inhibition (%)
One number for each entry, in %.

Use these answered entries as a reference point.
[[record]]
molecule = "O=C(CSc1ccccc1)Nc1ccc(C(=O)Nc2cccc(O)c2)cc1"
attribute_measured = "inhibition"
val = 65.7

[[record]]
molecule = "CC(C)(C)C(=O)CSc1nc2ccccc2o1"
attribute_measured = "inhibition"
val = 113

[[record]]
molecule = "CC[C@H](C)[C@H](NC(=O)[C@H](CCCNC(=N)N)NC(=O)[C@H](CCCNC(=N)N)NC(=O)[C@H](CC(C)C)NC(=O)[C@H](Cc1ccccc1)NC(=O)CNC(=O)CNC(=O)[C@@H](N)Cc1ccc(O)cc1)C(=O)N[C@@H](CCCNC(=N)N)C(=O)N1CCC[C@H]1C(=O)N[C@@H](CCCCN)C(=O)N[C@@H](CC(C)C)C(=O)N[C@@H](CCCCN)C(=O)N[C@@H](Cc1c[nH]c2ccccc12)C(=O)N[C@@H](CC(=O)O)C(=O)N[C@@H](CC(N)=O)C(=O)N[C@@H](CCC(N)=O)C(=O)O"
attribute_measured = "inhibition"
val = -7.4


Need inhibition for each of these molecules.
1. CCOc1ccc(C(=O)Nc2cccc(-c3ccc4nncn4n3)c2)cc1
2. COCCCNC(=S)N1CCN(c2nc(-c3cccc(OC)c3)cs2)CC1
3. O=C(CSc1nc2ccccc2o1)N1CCN(c2ccc(Cl)cc2)CC1
4. CSc1cccc(NC(=O)CSc2ccccc2)c1

Response:
1: 35.1; 2: 21.1; 3: -1.01; 4: 3.54

Need inhibition for each of these molecules.
1. Cc1nnc(SCC(=O)Nc2cccc(N)c2)n1-c1ccccc1
2. O=C(CSc1nc2ccccc2o1)N1CCN(c2ccccc2)CC1
3. Nc1ccc2nn(-c3ccc(Cl)cc3)nc2c1
4. COc1cccc2cc(-c3cc(=O)oc4cc(C)c(O)cc34)oc12
5. O=C(CSc1nc2ccccc2o1)N/N=C/c1ccccc1C(=O)O
6. CCOc1ccc(C(=O)Nc2cccc(SC)c2)cc1

Response:
[4.15, -6.06, 99, 0.992, 41.2, 47.7]

Need inhibition for each of these molecules.
1. CC1Cc2ccccc2N1C(=O)CSc1nc2ccccc2o1 (centres undefined)
2. CCS(=O)(=O)c1ccc2oc(SCC(=O)N3c4ccccc4CC3C)nc2c1 (centres undefined)
3. CCOc1ccc(C(=O)Nc2ccncc2)cc1
4. CCN1CCN(CCNC(=O)c2ccc3c(c2)NC(=O)/C(=C\c2ccc(OC)c(OC)c2)S3)CC1
5. O=C(NC1CCCCC1)C1CCC(CNS(=O)(=O)c2ccccc2)CC1 (centres undefined)
6. O=C(CSc1nc(C2CC2)nc2ccccc12)Nc1cccc(O)c1

Response:
1: 94.1; 2: -14.6; 3: 77.7; 4: -8.25; 5: 2.14; 6: -5.2

###

# procedure text: A qHTS for Small Molecule Inhibitors of Shiga Toxin; also: 0% is about no effect
# condition description: Vero cells, Shiga toxin protein synthesis inhibition reporter; at 38.7 µM, stronger effect = higher value
Hit rate of the full screen: of about 290,000 compounds, about 27,000 (9.3%) were called active. Shown is part of a subset that was picked to be rich in actives.
Hi there, I'd appreciate the recorded inhibition for every entry that follows.
Answers are plain numbers, in %.

Need inhibition for each of these compounds.
1. CCc1nnc(NC(=O)/C=C/c2ccc(C)o2)s1
2. CC(C)Cn1c(N)c(C(=O)NCc2cccs2)c2nc3ccccc3nc21
3. Cc1cc(Cl)ccc1OCCCC(=O)Nc1cccc(-n2cnnn2)c1
4. CCN(c1ccccc1)S(=O)(=O)c1ccc(NC(=O)C(C)(C)C)cc1
5. Cc1cccc(NC(=O)Nc2cccc(Oc3c(F)c(F)c(F)c(F)c3F)c2)c1
6. COC(=O)c1cc(NC(=O)c2cccnc2)ccc1N1CCOCC1
7. CC(=O)Nc1ccc(Nc2c3ccccc3nc3ccccc23)cc1
8. CC(=O)NC(=S)Nc1ccc(NC(=O)c2cccnc2)cc1

Response:
1. 26.8
2. -13.1
3. -13.8
4. 3.09
5. -0.582
6. 26.8
7. -31.9
8. 24.9

Need inhibition for each of these compounds.
1. CCC(C)NC(=O)c1c(N)n(/N=C/c2cccs2)c2nc3ccccc3nc12 (stereo not given)
2. COc1cc(OC)cc(C(=O)Nc2ccc(-c3nc4ccccc4o3)c(O)c2)c1
3. O=C1c2ccccc2C(=O)N1c1cccc2ccccc12
4. O=C(Nc1cnccn1)c1cccnc1
5. O=C(O)/C=C\C(=O)Nc1ccc(OCc2ccccc2)cc1

Response:
[107, 35.4, 25.6, 11, 43]

Need inhibition for each of these compounds.
1. COc1ccc(N2CCN(C(=O)c3ccc4c(Cl)c5c(nc4c3)CCCC5)CC2)cc1
2. Cc1cccc(N2Cc3ccccc3C2=NC(=O)c2ccc(Cl)nc2)c1
3. NC(=O)COc1ccc(NC(=O)c2ccccc2-c2ccccc2)cc1
4. COc1ccc(S(=O)(=O)NCCCCOc2ccc(Cl)cc2)cc1
5. CCOC(=O)[C@@H]1[C@H]2COc3ccc(Br)cc3[C@H]2N2C(=O)N(c3ccc(Cl)cc3)C(=O)[C@@]12C

Response:
1: -17.4; 2: 0; 3: -16.2; 4: -5.02; 5: -8.05

###

Hi there, I'd appreciate the recorded inhibition for every entry that follows.
# procedure text: A qHTS for Small Molecule Inhibitors of Shiga Toxin; also: 0% is about no effect
# condition description: Vero cells, Shiga toxin protein synthesis inhibition reporter; at 38.7 µM, stronger effect = higher value
In all, about 290,000 compounds went through this assay and about 27,000 (9.3%) were called active. Only a selection was taken, and actives are over-represented in it overall.

[[record]]
compound = "c1n[nH]c(NCc2ccc3c(c2)OCO3)n1"
attribute_measured = "inhibition"
val = "-23.7% (inactive)"

[[record]]
compound = "CN(CCN1CCOCC1)Cc1nc(-c2ccc3c(c2)OCO3)no1"
attribute_measured = "inhibition"
val = "13.4% (inactive)"

[[record]]
compound = "Cc1ccc(N(CC(=O)Nc2cccc(N(C)S(C)(=O)=O)c2)S(C)(=O)=O)cc1"
attribute_measured = "inhibition"
val = "-15.9% (inactive)"


Need inhibition for each of these compounds.
1. O=C(c1ccco1)N1CCN(Cc2cccc(C(F)(F)F)c2)CC1
2. COc1cc(/C=C2/C(=O)ON=C2C)ccc1OCc1ccccc1F
3. CC1=NOC(=O)/C1=C\c1ccccc1
4. Cc1ccc(Cn2ccc(NC(=O)c3cc(C(C)C)on3)n2)cc1
5. O=C1/C(=C/c2ccc(F)cc2)SC(=S)N1CCCC(=O)N1CCCCC1CCO (stereo unspecified)
6. CCOc1c(Cl)cc(/C=N/O)cc1OC
7. O=C(OCC#CCSc1nnc(-c2ccncc2)o1)c1sc2ccccc2c1Cl
8. COc1cccc(NC(=O)N2C3CCCC2CC(NC(C)=O)C3)c1 (stereo unspecified)

Response:
1: -13.9% (inactive); 2: 145% (active); 3: -4.49% (inactive); 4: 84.3% (active); 5: -4.46% (inactive); 6: 59.8% (inactive); 7: -13.4% (inactive); 8: -2.41% (inactive)

Need inhibition for each of these compounds.
1. COc1ccc(CN2CC(C(=O)NC3CCCCC3)CC2=O)cc1 (stereo unspecified)
2. CC(=O)c1ccc(N2CCN(S(=O)(=O)c3ccc4c(c3)CC(=O)N4C)CC2)cc1
3. COc1cccc(NC(=O)CN(C)CC(=O)Nc2ccc3c(c2)CCC3)c1
4. CCOc1ccc(/C=N/NC(=O)C(C)Sc2ccccn2)cc1OCC (stereo unspecified)
5. O=C(CSc1nnc(-c2ccncc2)o1)NCc1ccc(Cl)cc1
6. CCC(=O)Nc1ccc(C(=O)Nc2cccc(OC)c2)cc1
7. Cc1cccc(NS(=O)(=O)c2ccc([N+](=O)[O-])cc2)n1
8. c1ccc(-c2nnc(SCc3nc4ccccc4[nH]3)o2)cc1

Response:
-6.86% (inactive)
54.4% (active)
-9.55% (inactive)
-9.85% (inactive)
-9.29% (inactive)
108% (active)
12.1% (inactive)
36.1% (inactive)

Need inhibition for each of these compounds.
1. O=C(NNC(=O)C1CCCC1)c1ccc(F)cc1
2. COc1cccc(N(CC(=O)NC2CCCC2)C(=O)CCCC(=O)Nc2ccccn2)c1

Response:
1: 10.8% (inactive); 2: -5.09% (inactive)

Need inhibition for each of these compounds.
1. CC(=O)c1ccc(N2CCN(S(=O)(=O)c3c(C)[nH]c(=O)[nH]c3=O)CC2)cc1
2. COc1ccc(OCC(O)CN(C)C(=O)C(C)Oc2ccccc2)cc1 (stereo unspecified)
3. O=C(Cc1ccc(Cl)cc1)NC(=S)Nc1ccccc1O

Response:
1: 16.6% (inactive); 2: -1.44% (inactive); 3: -14.5% (inactive)

Need inhibition for each of these compounds.
1. COc1cc(/C=C2\SC(=O)NC2=O)ccc1OCc1ccc(Cl)nc1
2. Clc1cc(NC2CCCCC2)ncn1
3. COc1ccc(-c2nn(CCC#N)cc2C(=O)Nc2ccc(C(C)=O)cc2)cc1
4. Clc1ccc(-c2nnc(SCc3nc4ccccc4s3)o2)cc1
5. COc1ccc(NC(=O)c2sccc2SCC#N)cc1

Response:
["-5.05% (inactive)", "-10.3% (inactive)", "25.5% (inactive)", "61.6% (active)", "52.8% (active)"]

Need inhibition for each of these compounds.
1. COc1cccc(CNC(=O)C2CCCN(c3ncnc4c3nc3n4CCCCC3)C2)c1 (stereo unspecified)
2. CN(C)c1ccc(S(=O)(=O)NCC(=O)NCC2CCCCC2)cc1[N+](=O)[O-]
3. CCN(CC)CCCNC(=O)c1c(O)c2cc(F)cc3c2n(c1=O)C(C)CC3 (stereo unspecified)
4. CN(Cc1c(F)cccc1Cl)S(=O)(=O)c1cccs1

Response:
1. -3.2% (inactive)
2. 3.92% (inactive)
3. 2.56% (inactive)
4. 20.7% (inactive)

Need inhibition for each of these compounds.
1. CCCN(CCC)C(=S)Nc1cc(C(=O)OC)ccc1C(=O)OC
2. OC(COc1ccc(F)cc1Cl)CN1CCc2ccccc2C1 (stereo unspecified)
3. COc1ccc(NC(=O)c2sc(N)nc2-c2ccccc2)cc1
4. CCc1ccc(NC(=O)CN2CCC(C(=O)c3ccc(OC)cc3)CC2)cc1

Response:
1. -14.3% (inactive)
2. 16.9% (inactive)
3. 9.77% (inactive)
4. -10.2% (inactive)

Need inhibition for each of these compounds.
1. C#CCOc1ccc(/C=C2/C(=O)ON=C2C)cc1OCC
2. Cc1ccc(Cn2ccc(NC(=O)C3C4CCC(C4)C3C(=O)O)n2)cc1 (stereo unspecified)
3. COc1ccc(C(=S)Nc2ccccc2)cc1
4. CC(C)N(Cc1nc(-c2ccc3c(c2)OCO3)no1)CC1CCC(=O)N1 (stereo unspecified)

Response:
1. 13.8% (inactive)
2. -3.4% (inactive)
3. 62.5% (active)
4. -4.06% (inactive)

Source: PubChem BioAssay AID2315
